Measured pIC50 of individual entries
molecular target: Renin (Homo sapiens, UniProt P00797); assay: Inhibition of human recombinant renin using Arg-Glu(EDANS)-Ile-His-Pro-Phe-His-Leu-Val-Ile-His-Thr-Lys (DABCYL)-Arg as substrate incubated for 10 mins prior to substrate addition measured after 90 mins by fluorescence assay
Sequence (P00797 whole entry): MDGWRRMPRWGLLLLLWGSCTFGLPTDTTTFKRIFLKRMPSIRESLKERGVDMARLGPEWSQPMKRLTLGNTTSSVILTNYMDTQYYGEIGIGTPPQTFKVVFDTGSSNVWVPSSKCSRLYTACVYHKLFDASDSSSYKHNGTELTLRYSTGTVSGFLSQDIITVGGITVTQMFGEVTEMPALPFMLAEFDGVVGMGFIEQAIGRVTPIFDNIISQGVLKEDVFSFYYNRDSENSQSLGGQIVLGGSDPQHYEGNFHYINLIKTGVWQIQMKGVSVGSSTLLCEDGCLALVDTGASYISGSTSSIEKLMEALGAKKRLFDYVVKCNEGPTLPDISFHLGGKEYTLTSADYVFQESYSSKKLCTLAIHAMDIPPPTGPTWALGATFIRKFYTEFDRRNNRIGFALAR
In textbook form, pIC50 equals minus log to base ten of the concentration in mol/L.

• CC(C)[C@H](C[C@H](O)[C@@H](N)CN1CC(=O)N(c2ccccc2Cl)CC1(C)C)C(=O)NCC(C)(C)O.O=C(O)/C=C/C(=O)O = 8.62
• CC[C@H](C[C@H](O)[C@@H](N)CN1CC(=O)N(c2cc(F)ccc2C)CC1(C)C)C(=O)N[C@H]1C2CC3CC1C[C@](O)(C3)C2.O=C(O)/C=C/C(=O)O = 8.80

// below: pIC50 requested for another molecule
Please give the measured pIC50 for this molecule: `CC[C@H](C[C@H](O)[C@@H](N)CN1CC(=O)N(c2cc(F)ccc2Cl)CC1(C)C)C(=O)N[C@H]1C2CC3CC1C[C@](O)(C3)C2.O=C(O)/C=C/C(=O)O`
8.85

###

target: Renin (Homo sapiens, UniProt P00797); assay: Inhibition of human recombinant renin using Arg-Glu(EDANS)-Ile-His-Pro-Phe-His-Leu-Val-Ile-His-Thr-Lys (DABCYL)-Arg as substrate incubated for 10 mins prior to substrate addition measured after 90 mins by fluorescence assay
# Lookup of reported log10 IC50 keyed by entry
Log10 applied to IC50; unit prior to transform: nM.

Sample answers from the record:
* CC[C@H](C[C@H](O)[C@@H](N)CN1CC(=O)N(c2ccccc2Cl)CC1(C)C)C(=O)NCC(C)(C)CO.O=C(O)/C=C/C(=O)O | 0.20
* Cc1ccc(F)cc1N1CC(C)(C)N(C[C@H](N)[C@@H](O)C[C@H](C(=O)N[C@H]2C3CC4CC2C[C@](O)(C4)C3)C(C)C)CC1=O.O=C(O)/C=C/C(=O)O | 0.23
* CC[C@H](C[C@H](O)[C@@H](N)CN1CC(=O)N(c2ccccc2Cl)CC1(C)C)C(=O)Nc1ncccc1C.O=C(O)/C=C/C(=O)O | 0.58
* Cc1ccc(F)cc1N1CC(C)(C)N(C[C@H](N)[C@@H](O)C[C@H](C(=O)NCC(C)(C)C(=O)O)C(C)C)CC1=O | 1.20
* CC(C)[C@H](C[C@H](O)[C@@H](N)CN1CC(=O)N(c2ccccc2Cl)CC1(C)C)C(=O)N[C@H]1C2CC3CC1C[C@](O)(C3)C2.O=C(O)/C=C/C(=O)O | 0.11
* CC[C@H](C[C@H](O)[C@@H](N)CN1CC(=O)N(c2ccccc2Cl)CC1(C)C)C(=O)Nc1ccc(F)cn1.O=C(O)/C=C/C(=O)O | 0.00

Given `CC(C)[C@H](C[C@H](O)[C@@H](N)CN1CC(=O)N(c2ccccc2Cl)CC1(C)C)C(=O)NCC(C)(C)C.O=C(O)/C=C/C(=O)O` , state its recorded log10 IC50.
0.00

Endpoint output: log10 IC50 of `CC(C)[C@H](C[C@H](O)[C@@H](N)CN1CC(=O)N(c2ccccc2Cl)CC1(C)C)C(=O)N[C@H]1CC[C@H](O)CC1.O=C(O)/C=C/C(=O)O` . Value?
0.15

Value lookup for log10 IC50; key = `CC(C)NC(=O)[C@@H](C[C@H](O)[C@@H](N)CN1CC(=O)N(c2ccccc2Cl)CC1(C)C)C(C)C.O=C(O)/C=C/C(=O)O`
0.46

Recorded log10 IC50 for `CC(C)[C@H](C[C@H](O)[C@@H](N)CN1CC(=O)N(c2ccccc2Cl)CC1(C)C)C(=O)Nc1ccc(F)c(F)c1.O=C(O)/C=C/C(=O)O` , please?
0.28

Consider the compound `CC[C@H](C[C@H](O)[C@@H](N)CN1CC(=O)N(c2ccccc2Cl)CC1(C)C)C(=O)NCC(CC)(CC)CO.O=C(O)/C=C/C(=O)O` and give its measured log10 IC50.
0.00

Which log10 IC50 value belongs to `Cc1ccc(F)cc1N1CC(C)(C)N(C[C@H](N)[C@@H](O)C[C@H](C(=O)Nc2cccnc2)C(C)C)CC1=O.O=C(O)/C=C/C(=O)O` ?
0.38

# lookup: log10 IC50 of `CC[C@H](C[C@H](O)[C@@H](N)CN1CC(=O)N(c2ccccc2Cl)CC1(C)C)C(=O)Nc1ccc(C)cc1.O=C(O)/C=C/C(=O)O`
0.51

###

Here, each record is paired with measured pIC50 data.
target: UniProt Q6DLS0; experiment: Inhibition of renin in cynomolgus monkey plasma after 1 hr by RIA
Convention used: pIC50 is expressed as -log10 of the molar concentration.

- CC[C@H](C[C@H](O)[C@@H](N)CN1CC(=O)N(c2ccccc2Cl)CC1(C)C)C(=O)NCC(CC)(CC)CO.O=C(O)/C=C/C(=O)O: 8.52
- CC(C)[C@H](C[C@H](O)[C@@H](N)CN1CC(=O)N(c2ccccc2Cl)CC1(C)C)C(=O)Nc1ccc(F)cn1.O=C(O)/C=C/C(=O)O: 8.47
- Cc1ccc(F)cc1N1CC(C)(C)N(C[C@H](N)[C@@H](O)C[C@H](C(=O)N[C@H]2C3CC4CC2C[C@](O)(C4)C3)C(C)C)CC1=O.O=C(O)/C=C/C(=O)O: 8.00
- CC[C@H](C[C@H](O)[C@@H](N)CN1CC(=O)N(c2cc(F)ccc2C)CC1(C)C)C(=O)N[C@H]1C2CC3CC1C[C@](O)(C3)C2.O=C(O)/C=C/C(=O)O: 8.34
- CC(C)[C@H](C[C@H](O)[C@@H](N)CN1CC(=O)N(c2ccccc2Cl)CC1(C)C)C(=O)NC12CC3CC(CC(O)(C3)C1)C2.O=C(O)/C=C/C(=O)O: 8.19

Give the measured pIC50 of `CC(C)[C@H](C[C@H](O)[C@@H](N)CN1CC(=O)N(c2cc(F)ccc2Cl)CC1(C)C)C(=O)N[C@H]1C2CC3CC1C[C@](O)(C3)C2.O=C(O)/C=C/C(=O)O` .
8.11

###

biological target: Renin (Macaca fascicularis); assay: Inhibition of renin in cynomolgus monkey plasma after 1 hr by RIA
Sequence (Q6DLS0 whole entry): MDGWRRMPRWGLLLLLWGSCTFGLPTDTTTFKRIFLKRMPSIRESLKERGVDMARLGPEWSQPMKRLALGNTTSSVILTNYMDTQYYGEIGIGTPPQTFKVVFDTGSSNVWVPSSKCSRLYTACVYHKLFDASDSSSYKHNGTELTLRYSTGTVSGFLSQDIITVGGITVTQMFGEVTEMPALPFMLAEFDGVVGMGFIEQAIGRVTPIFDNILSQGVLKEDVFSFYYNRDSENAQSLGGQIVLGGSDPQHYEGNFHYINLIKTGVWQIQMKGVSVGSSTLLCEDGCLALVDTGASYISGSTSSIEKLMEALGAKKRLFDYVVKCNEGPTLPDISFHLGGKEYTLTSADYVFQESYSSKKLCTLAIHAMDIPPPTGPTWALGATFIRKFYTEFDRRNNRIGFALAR
The following compounds are shown together with reported pIC50 values.
pIC50 is a log-scale quantity: -log10 of the concentration expressed in molar.

* CC[C@H](C[C@H](O)[C@@H](N)CN1CC(=O)N(c2ccccc2Cl)CC1(C)C)C(=O)N[C@H]1C2CC3CC1C[C@@](O)(C3)C2.O=C(O)/C=C/C(=O)O | 8.74
* CC(C)[C@H](C[C@H](O)[C@@H](N)CN1CC(=O)N(c2ccccc2Cl)CC1(C)C)C(=O)Nc1ccc(F)c(F)c1.O=C(O)/C=C/C(=O)O | 7.68
* CC(C)[C@H](C[C@H](O)[C@@H](N)CN1CC(=O)N(c2ccccc2Cl)CC1(C)C)C(=O)Nc1ccc(F)cc1.O=C(O)/C=C/C(=O)O | 8.14
* Cc1ccc(F)cc1N1CC(C)(C)N(C[C@H](N)[C@@H](O)C[C@H](C(=O)NCC(C)(C)C(=O)O)C(C)C)CC1=O | 7.41
* CC(C)[C@H](C[C@H](O)[C@@H](N)CN1CC(=O)N(c2ccccc2Cl)CC1(C)C)C(=O)N[C@H]1CC[C@H](O)CC1.O=C(O)/C=C/C(=O)O | 8.37

--- query ---
Using the record for `Cc1cccc(NC(=O)[C@@H](C[C@H](O)[C@@H](N)CN2CC(=O)N(c3ccccc3Cl)CC2(C)C)C(C)C)n1.O=C(O)/C=C/C(=O)O` , report its pIC50.
7.33

###

molecular target: Renin (Macaca fascicularis); test: Ratio of compound IC50 to aliskiren IC50 for renin in cynomolgus monkey plasma
measuredEndpoint: Ratio IC50
Output spec: single numeric token, no unit.

Example compounds with recorded Ratio IC50:
* C[C@H](C[C@H](O)[C@@H](N)CN1CC(=O)N(c2ccccc2Cl)CC1(C)C)C(=O)N[C@H]1C2CC3CC1C[C@](O)(C3)C2.O=C(O)/C=C/C(=O)O | 1.6
* CC(C)[C@H](C[C@H](O)[C@@H](N)CN1CC(=O)N(c2ccccc2Cl)CC1(C)C)C(=O)Nc1cccnc1 | 1.9

Given the entry `CC(C)[C@H](C[C@H](O)[C@@H](N)CN1CC(=O)N(c2ccccc2Cl)CC1(C)C)C(=O)Nc1ccc(F)c(F)c1.O=C(O)/C=C/C(=O)O` , report its measured Ratio IC50.
4.5

Can you share its Ratio IC50? I mean this compound: `CC(C)[C@H](C[C@H](O)[C@@H](N)CN1CC(=O)N(c2ccccc2Cl)CC1(C)C)C(=O)Nc1ccc(F)cc1.O=C(O)/C=C/C(=O)O`
1.2

###

experiment: Half life in cynomolgus monkey at 3 mg/kg, po by HPLC-MS/MS analysis; type: ADME, organism-based, Macaca fascicularis; set-up: dose 3 mg/kg, route oral; conditions: in vivo
measuredEndpoint: half-life (h)
Numeric answer only, unit h assumed.

Which value of half-life has been reported for `CC(C)[C@H](C[C@H](O)[C@@H](N)CN1CC(=O)N(c2ccccc2Cl)CC1(C)C)C(=O)NCC(C)(C)C.O=C(O)/C=C/C(=O)O` in the records?
15.3
